Value source: paper PMC5006629

Tested on: human HT-29 colon tumor cell line
Measurement protocol: HT-29 tumor cell growth inhibition
Format: cell-based
Test parameters: Homo sapiens, HT-29, read-out: HT-29 growth inhibition: IC50
Property: IC50; scope: individual compounds

Compound	Qualifier	IC50 [µM]
COc1ccccc1-c1cc(-c2ccc(-c3ccc(Br)cc3)cc2)nc(N)c1C#N	=	32
CCOc1ccccc1-c1cc(-c2cccc(Br)c2)nc(N)c1C#N	=	43
CCOc1ccccc1-c1cc(-c2cccc(Br)c2)nc2ncnc(N)c12	=	18.3
COc1ccccc1-c1cc(-c2cccc(Br)c2)nc2nc[nH]c(=O)c12	=	1.34
Cc1[nH]c(=O)c(C#N)cc1-c1ccncc1 [Milrinone, reference compound]	>	50
N#Cc1c(-c2ccccc2Cl)cc(-c2ccccc2Br)[nH]c1=O	=	10.4
